System: 41M
Assay: In vitro cytotoxicity (SRB), 41M
Assay type: cell-based, human
Details: ovarian cancer, 48 to 96 hours
Binarize IC50 at 3 µM; below is criterion met, at or above is criterion not met.

{"columns": ["molecule", "target-or-test-system", "label-class"],
 "data": [
  ["[NH2][Pt]([OH])([OH])([Cl])([Cl])[NH]Cc1ccccc1 [B, t[PtCl2 (OH2)NH3 (PhCH2 NH2)]]", "41M", "criterion met"],
  ["[NH2][Pt]([OH])([OH])([Cl])([Cl])[NH]C1CCCC1 [EX 1, trans-[PtCl2 (OH)2 (NH3)(c-C5 H9 NH2)]]", "41M", "criterion met"],
  ["C1CN2CCC1CC2.[NH2][Pt]([OH])([OH])([Cl])[Cl] [EX 11, t-[PtCl2 (OH)2 NH3 (quinuclidine)]]", "41M", "criterion not met"],
  ["CC[N](CC)[Pt]([NH2])([OH])([OH])([Cl])[Cl] [EX 10, t-[PtCl2 (OH)2 NH3 (Et2 NH)]]", "41M", "criterion met"],
  ["CC(C)(C)[NH][Pt]([NH2])([OH])([OH])([Cl])[Cl] [EX 4, trans-[PtCl2 (OH)2 NH3 (t-C4 H9 NH2)]]", "41M", "criterion met"]
]}

Ask | In the record for CC(C)[NH][Pt]([NH2])([OH])([OH])([Cl])[Cl] [EX 3, trans-[PtCl2 (OH)2 (NH3)((CH3)2 CHNH2)]] , is IC50 less than 3 µM?
Reply | criterion not met

Ask | In the record for [NH2][Pt]([OH])([OH])([Cl])([Cl])[N]1CCOCC1 [EX 7, trans-[PtCl2 (OH)2 NH3 (morpholine)]] , is IC50 less than 3 µM?
Reply | criterion not met

Ask | In the record for C[NH][Pt]([NH2])([OH])([OH])([Cl])[Cl] [EX 6, trans-[PtCl2 (OH)2 NH3 (MeNH2)]] , is IC50 less than 3 µM?
Reply | criterion not met

Ask | In the record for [NH2][Pt]([OH])([OH])([Cl])([Cl])[NH]C1CCCCC1 [EX 2, trans-[PtCl2 (OH)2 (NH3)(c-C6H11 NH2)]] , is IC50 less than 3 µM?
Reply | criterion met
